- tested-system: T1, corticotropin releasing factor 2 receptor
- T1 sequence (Q13324 whole entry, species assumed, looked up): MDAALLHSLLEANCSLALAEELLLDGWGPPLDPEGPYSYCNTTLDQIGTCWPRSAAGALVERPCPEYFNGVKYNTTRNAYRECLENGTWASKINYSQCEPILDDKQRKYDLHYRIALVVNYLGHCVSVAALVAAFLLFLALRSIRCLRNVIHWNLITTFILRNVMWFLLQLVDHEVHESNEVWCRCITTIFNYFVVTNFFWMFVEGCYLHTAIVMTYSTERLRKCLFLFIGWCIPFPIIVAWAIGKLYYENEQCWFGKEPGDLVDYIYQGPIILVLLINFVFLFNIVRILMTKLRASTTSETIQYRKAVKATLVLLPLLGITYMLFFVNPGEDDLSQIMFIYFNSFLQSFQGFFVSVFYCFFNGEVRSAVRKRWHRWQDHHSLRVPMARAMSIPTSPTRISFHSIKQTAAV
- method-notes: cell-based or functional assay
Ends that are not written are not given here.
reported-metric: CRF2R EC50 (nM)

{"binder": "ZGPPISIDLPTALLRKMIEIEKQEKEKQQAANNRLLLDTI (C-terminal amide) [SEQ ID NO 61]", "value-comparator": ">", "recorded-value": 100}
{"binder": "IVLSLDVPIGLLQILLEQEKEKKRKETNARILARV-NH2 [SEQ ID NO 132]", "value-comparator": "=", "recorded-value": 7.53}
{"binder": "ZGPPISIDLPNYLLRKMIEIEKQEKEKQQAANNRLLLDTI (C-terminal amide) [SEQ ID NO 64]", "value-comparator": "=", "recorded-value": 63.3}
